- experiment description: duplex melting temperature (HRM, EvaGreen); higher = more stable duplex
- condition notes: duplex concentration 10 µM; backbone: PO-PO (both strands phosphodiester DNA)
I'd be grateful if you could share measured duplex melting temperature for these entries.
Numbers only, in °C.

q: # duplex melting temperature lookup, item "CACAGCGACATGTATGG"
a: 72.1

q: # get_value(readout='duplex melting temperature', item= "ACTGTATCGCCCTA" )
a: 68.4

q: Any idea what its duplex melting temperature is? The sequence is "TCTCGCGGTTCCATTA"
a: 71.6

q: Using the record for "ATAACTTACTCTCGCCT" , report its duplex melting temperature.
a: 69.3

q: What value of measured duplex melting temperature is listed for "CTCAGAGTAGAGCCGA" ?
a: 70.4

Parameters: items (list). Returns: duplex melting temperature for each item.
1. AACGAATGTCAGCAATT
2. CTAAACTGTTATAGCCGG
3. CCGCTCAGAGTAGAGA
4. CTTTTGTGCGGGTAGC

a:
[69.1, 70.1, 69.9, 70.5]

Provide the reported duplex melting temperature of each entry below, same order.
1. AATGTCGAACAGCAATT
2. TGTCGCACCCTACTA
3. CAAGCCTCGATTTTGT
4. CGGCGCGCTG

a:
1. 69.5
2. 71
3. 68.8
4. 70.3
